Each recorded value in this set is attributed to paper PMC8561351.

Molecular target: HLA-A0201 on T2 cells (Homo sapiens, UniProt P04439, D140Y/D185E/D98H/E176V/E277Q/G131W/G231S/I119V/I121R/I166T/I218V/L300P/L318F/N151K/N90K/P208A/P217A/Q86G/Q94H/R138H/R169H/T345S)
Assay: T2 cell binding and HLA-A2 molecule stability assay
Settings: 50 μg/mL peptide, 3 μg/mL β2-m, 16 h, 37 °C, PE-anti-HLA-A2.1, flow cytometry
REPORTED METRIC: FI (fluorescence index)
// keep it numeric: no unit symbol after the value

sequence_input="NMLRIMASL [Epitope R13]" reported_metric="FI (fluorescence index)" observed_value=0.41
sequence_input="MIAQYTSAL [Epitope D13]" reported_metric="FI (fluorescence index)" observed_value=0.24

Lookup: Could you share which FI (fluorescence index) value was measured for QLLFVVEVV [Epitope R15] ?
Found: 3.67

Lookup: Could you share which FI (fluorescence index) value was measured for SLAIDAYPL [Epitope R5] ?
Found: 4.00

Lookup: Could you share which FI (fluorescence index) value was measured for LLLDRLNQL [Epitope C1] ?
Found: 1.26

Lookup: Could you share which FI (fluorescence index) value was measured for KLLEQWNLV [Epitope B2] ?
Found: 0.94

Lookup: Could you share which FI (fluorescence index) value was measured for FLAFVVFLL [Epitope A1] ?
Found: 0.65

Lookup: Could you share which FI (fluorescence index) value was measured for GMSRIGMEV [Epitope C2] ?
Found: 0.21

Lookup: Could you share which FI (fluorescence index) value was measured for RLCAYCCNIV [Epitope A5] ?
Found: 1.65

Lookup: Could you share which FI (fluorescence index) value was measured for NLLKDCPAV [Epitope R6] ?
Found: 2.48
